tested.target: UniProt:Q8NEB9
Sequence (Q8NEB9 whole entry): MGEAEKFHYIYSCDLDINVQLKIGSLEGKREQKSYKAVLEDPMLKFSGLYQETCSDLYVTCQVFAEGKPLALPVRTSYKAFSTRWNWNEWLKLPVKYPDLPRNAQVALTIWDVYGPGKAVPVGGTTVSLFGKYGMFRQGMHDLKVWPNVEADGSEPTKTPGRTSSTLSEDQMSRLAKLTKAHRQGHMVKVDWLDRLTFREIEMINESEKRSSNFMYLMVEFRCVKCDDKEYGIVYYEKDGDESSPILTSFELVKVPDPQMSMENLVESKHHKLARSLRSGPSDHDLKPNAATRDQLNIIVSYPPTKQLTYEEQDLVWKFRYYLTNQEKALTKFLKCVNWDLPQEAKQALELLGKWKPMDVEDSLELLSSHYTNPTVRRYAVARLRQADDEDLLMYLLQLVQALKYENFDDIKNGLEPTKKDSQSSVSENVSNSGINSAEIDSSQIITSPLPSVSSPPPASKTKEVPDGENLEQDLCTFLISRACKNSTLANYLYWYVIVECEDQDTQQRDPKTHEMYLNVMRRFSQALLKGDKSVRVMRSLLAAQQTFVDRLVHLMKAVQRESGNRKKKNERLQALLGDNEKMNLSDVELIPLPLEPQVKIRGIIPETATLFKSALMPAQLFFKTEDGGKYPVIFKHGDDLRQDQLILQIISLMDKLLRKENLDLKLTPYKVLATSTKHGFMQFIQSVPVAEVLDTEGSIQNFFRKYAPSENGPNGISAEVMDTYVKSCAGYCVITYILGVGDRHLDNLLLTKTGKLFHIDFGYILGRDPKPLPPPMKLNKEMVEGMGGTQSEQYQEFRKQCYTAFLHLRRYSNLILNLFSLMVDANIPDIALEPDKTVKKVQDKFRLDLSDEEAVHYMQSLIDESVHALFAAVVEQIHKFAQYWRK
test.method.notes: Biochemical Vps34 lipid kinase assay (ADP-Glo)
conditions.used: serial dilution 10 μM to 0.3 nM; 20 μM ATP; pIC50 = -log IC50 (M)
recorded.metric: IC50 (M)

| compound | IC50 (M) |
| --- | --- |
| CC1CN2Cc3cccc(c3)Nc3cc(ccn3)-c3cnc(nc3)NCCCNC(=O)CN1CC2C (stereo not shown) | 2.95e-07 |
| CC1(C)CN2CCN1Cc1cccc(c1)Nc1cc(ccn1)-c1cnc(nc1)NCCCNC(=O)C2 | 2.88e-07 |
| O=C1NCCCNc2ncc(cn2)-c2ccnc(c2)Nc2cccc(c2)CN2CCN(CC2)C1CO (single isomer, unassigned) [Compound 2] | 5.5e-07 |
| CC1CN2CCN1Cc1cccc(c1)Nc1cc(ccn1)-c1cnc(nc1)N1CC(O)CC1CCNC(=O)C2 (stereo not shown) [Compound 62] | 1.23e-06 |

1 = O=C1CN2CCN(Cc3cccc(c3)Nc3cc(ccn3)-c3cnc(nc3)N3CCCC3CCN1)C(CO)C2 (stereo not shown) [Compound 44]
2 = O=C1CN2CCC(CC2)Oc2cccc(c2)Nc2cc(ccn2)-c2cnc(nc2)NCCCN1
Endpoint returns whichever of 1 and 2 has the numerically higher IC50. Lab note: record the label of whichever item you select.
1
